# assay_target: HDAC1 (Homo sapiens)
# Construct: Recombinant, full-length HDAC protein (BPS Biosciences) was incubated with fluorophore conjugated substrate
# Sequence (Q13547 whole entry): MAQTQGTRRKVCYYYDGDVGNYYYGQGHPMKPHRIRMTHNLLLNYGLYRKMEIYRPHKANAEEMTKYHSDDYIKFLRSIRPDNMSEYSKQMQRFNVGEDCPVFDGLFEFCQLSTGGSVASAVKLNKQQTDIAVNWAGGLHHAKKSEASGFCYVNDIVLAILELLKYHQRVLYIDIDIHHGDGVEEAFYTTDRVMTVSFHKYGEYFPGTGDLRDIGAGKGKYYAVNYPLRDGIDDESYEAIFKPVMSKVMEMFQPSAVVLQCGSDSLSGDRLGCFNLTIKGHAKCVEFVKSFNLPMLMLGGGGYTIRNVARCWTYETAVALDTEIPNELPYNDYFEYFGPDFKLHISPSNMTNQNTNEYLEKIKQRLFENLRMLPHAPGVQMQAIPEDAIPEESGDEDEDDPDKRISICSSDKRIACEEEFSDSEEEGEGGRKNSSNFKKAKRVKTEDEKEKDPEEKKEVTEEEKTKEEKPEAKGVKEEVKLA
# procedure_text: In vitro HDAC enzyme inhibition assay, HDAC1
# assay_conditions: recombinant full-length HDAC1, substrate MAZ1600 21 μM
Below, each entry is listed with its recorded IC50.
Supply the numeric figure in nM, leaving out any unit text.

Form: item O=C(NO)c1ccc(Cn2c(=O)[nH]c3ccccc32)cc1 [B1] ; test system HDAC1 (Homo sapiens); IC50: 140

Form: item O=C(NO)c1ccc(Cn2cnc3cc(Cl)ccc32)cc1 [A10] ; test system HDAC1 (Homo sapiens); IC50: 96.5

Form: item O=C(NO)c1ccc(Cn2nnc3cc(F)ccc32)cc1 [C3] ; test system HDAC1 (Homo sapiens); IC50: 218

Form: item COc1ccc2c(c1)[nH]c(=O)n2Cc1ccc(C(=O)NO)cc1 [B7] ; test system HDAC1 (Homo sapiens); IC50: 31.5

Form: item O=C(NO)c1ccc(Cn2nnc3ccccc32)cc1 [C1] ; test system HDAC1 (Homo sapiens); IC50: 63.9

###

# assay_target: HDAC8 (Homo sapiens, UniProt Q9BY41)
# Construct: Recombinant, full-length HDAC protein (BPS Biosciences) was incubated with fluorophore conjugated substrate; purchased BPS Biosciences
# Sequence (Q9BY41 1-377): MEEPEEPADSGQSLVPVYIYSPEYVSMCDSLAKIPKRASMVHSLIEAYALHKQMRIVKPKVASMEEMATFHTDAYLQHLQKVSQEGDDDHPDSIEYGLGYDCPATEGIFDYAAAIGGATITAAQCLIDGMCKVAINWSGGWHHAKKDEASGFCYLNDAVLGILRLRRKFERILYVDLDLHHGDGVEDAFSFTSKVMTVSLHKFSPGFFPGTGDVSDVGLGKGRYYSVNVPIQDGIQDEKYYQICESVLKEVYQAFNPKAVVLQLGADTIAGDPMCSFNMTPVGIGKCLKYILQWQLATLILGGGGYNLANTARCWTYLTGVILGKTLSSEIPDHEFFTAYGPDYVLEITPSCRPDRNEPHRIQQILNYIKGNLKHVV
# procedure_text: In vitro HDAC enzyme inhibition assay, HDAC8
# Format: biochemical
# assay_conditions: recombinant full-length HDAC8, substrate MAZ1675 282 μM
Below, each entry is listed with its recorded pIC50.
Remember, pIC50 is on a log scale: it is -log10 of the molar concentration.

Worked cases, answers included:
smiles_entry=COc1ccc2c(c1)ncn2Cc1ccc(C(=O)NO)cc1 meas_value=5.85
smiles_entry=O=C(NO)c1ccc(Cn2c(C(F)(F)F)nc3ccccc32)cc1 meas_value=5.75
smiles_entry=O=C(NO)c1ccc(Cn2c(=O)[nH]c3cc(Br)ccc32)cc1 meas_value=6.59
smiles_entry=Cc1ccc2c(c1)[nH]c(=O)n2Cc1ccc(C(=O)NO)cc1 meas_value=6.46
smiles_entry=COc1ccc2c(c1)[nH]c(=O)n2Cc1ccc(C(=O)NO)cc1 meas_value=6.26
smiles_entry=O=C(NO)c1ccc(Cn2nnc3cc(Br)ccc32)cc1 meas_value=6.37

Please find the next compound below.
Per the record, O=C(NO)c1ccc(Cn2cnc3cc(F)ccc32)cc1 has pIC50 of 6.09

###

# assay_target: HDAC4 (Homo sapiens, UniProt P56524)
# Construct: Recombinant, full-length HDAC protein (BPS Biosciences) was incubated with fluorophore conjugated substrate; purchased BPS Biosciences
# Sequence (P56524 whole entry): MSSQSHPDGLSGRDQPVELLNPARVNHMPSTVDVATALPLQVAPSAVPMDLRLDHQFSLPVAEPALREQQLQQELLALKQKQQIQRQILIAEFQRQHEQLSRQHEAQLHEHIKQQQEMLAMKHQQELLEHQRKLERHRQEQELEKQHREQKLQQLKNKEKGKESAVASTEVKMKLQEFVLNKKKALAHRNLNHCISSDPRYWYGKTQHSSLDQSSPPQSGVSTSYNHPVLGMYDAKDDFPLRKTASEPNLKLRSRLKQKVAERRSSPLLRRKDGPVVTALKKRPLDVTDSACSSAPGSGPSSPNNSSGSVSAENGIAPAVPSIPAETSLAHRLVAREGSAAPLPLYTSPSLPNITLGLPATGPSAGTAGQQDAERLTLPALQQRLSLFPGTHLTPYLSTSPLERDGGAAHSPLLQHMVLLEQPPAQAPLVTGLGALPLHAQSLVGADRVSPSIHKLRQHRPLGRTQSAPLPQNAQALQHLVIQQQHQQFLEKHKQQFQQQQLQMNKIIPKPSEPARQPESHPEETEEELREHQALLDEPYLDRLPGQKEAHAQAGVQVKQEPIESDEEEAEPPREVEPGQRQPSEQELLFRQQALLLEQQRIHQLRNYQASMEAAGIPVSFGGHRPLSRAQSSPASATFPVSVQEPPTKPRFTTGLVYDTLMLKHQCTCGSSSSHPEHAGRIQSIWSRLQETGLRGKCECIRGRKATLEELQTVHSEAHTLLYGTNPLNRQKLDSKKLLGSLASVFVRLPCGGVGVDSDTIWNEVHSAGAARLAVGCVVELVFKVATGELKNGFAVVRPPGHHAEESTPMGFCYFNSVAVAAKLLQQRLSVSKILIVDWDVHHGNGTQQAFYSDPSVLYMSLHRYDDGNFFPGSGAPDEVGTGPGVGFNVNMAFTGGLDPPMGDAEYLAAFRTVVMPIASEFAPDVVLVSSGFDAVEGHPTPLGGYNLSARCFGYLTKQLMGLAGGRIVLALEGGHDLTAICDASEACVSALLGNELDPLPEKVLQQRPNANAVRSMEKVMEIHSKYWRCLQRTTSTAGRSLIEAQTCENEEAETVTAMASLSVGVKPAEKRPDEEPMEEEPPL
# procedure_text: In vitro HDAC enzyme inhibition assay, HDAC4
# Assay type: biochemical
# assay_conditions: ratio of IC50 for HDAC4 relative to that of HDAC6
Kindly return condition met if reported HDAC4/HDAC6 in vitro selectivity is no lower than 60000; return condition not met if it is lower.

Check the entry O=C(NO)c1ccc(Cn2c(=O)[nH]c3cc(Cl)ccc32)cc1 [B4] : does HDAC4/HDAC6 in vitro selectivity equal or exceed 60000? condition not met

Check the entry O=C(NO)c1ccc(Cn2c(C(F)(F)F)nc3cc(F)ccc32)cc1 [A3] : does HDAC4/HDAC6 in vitro selectivity equal or exceed 60000? condition not met

Check the entry O=C(NO)c1ccc(Cn2cnc3cc(Cl)ccc32)cc1 [A10] : does HDAC4/HDAC6 in vitro selectivity equal or exceed 60000? condition not met

Check the entry COc1ccc2c(c1)ncn2Cc1ccc(C(=O)NO)cc1 [A12] : does HDAC4/HDAC6 in vitro selectivity equal or exceed 60000? condition not met

Check the entry O=C(NO)c1ccc(Cn2c(C(F)(F)F)nc3cc(Br)ccc32)cc1 [A5] : does HDAC4/HDAC6 in vitro selectivity equal or exceed 60000? condition not met
